settings: 303.15 K; 101.33 kPa; Liquid; Vibrating tube method
Numbers after ± are expanded uncertainties.
Each record here notes measured mass density.
Please don't drop the unit; write it after the number.

Sample records with mass density:
Compound	mass density
CCCCCCn1cc[n+](C)c1.F[B-](F)(F)F [1-hexyl-3-methylimidazolium tetrafluoroborate]	1141.8 ± 1.1 kg/m3
C[N+](=O)[O-]	1126.6 ± 0.7 kg/m3
CCOS(=O)(=O)[O-].CCn1cc[n+](C)c1 [1-ethyl-3-methylimidazolium ethyl sulfate]	1233.8 ± 1.4 kg/m3
CCCCn1cc[n+](C)c1.COS(=O)(=O)[O-] [1-butyl-3-methylimidazolium methyl sulfate]	1204.1 ± 1.3 kg/m3

Next:
What the record says about CCCCn1cc[n+](C)c1.O=S(=O)([O-])C(F)(F)F [1-butyl-3-methylimidazolium trifluoromethanesulfonate] : mass density is 1293.7 ± 1.5 kg/m3
